B1: MYOZ1 (parent)
chain: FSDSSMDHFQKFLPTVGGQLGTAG

Variants of: B1
assay_procedure: protein stability index of a GFP-peptide fusion (GPS, HEK-293T) (PSI 1-6); higher = more stable;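 further: lentivirally expressed fusions sorted by FACS into six bins by GFP to DsRed ratio, PSI derived from sequencing read proportions per bin multiplied by bin number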
reported_conditions: c terminus: a fixed tail appended
quantity_measured: protein stability index
Just the number.

Worked set:
sequence_text: FSDSSGDHFQKFLPTVGGQLGTAG [M6G]
protein stability index: 2.86

sequence_text: FSDSSMDHFQKFLPTVGGQLGSAG [T22S]
protein stability index: 2.19

sequence_text: ASDSSMDHFQKFLPTVGGQLGTAG [F1A]
protein stability index: 3.62

sequence_text: FSRSSMDHFQKFLPTVGGQLGTAG [D3R]
protein stability index: 1.49

sequence_text: FSDSSMDHFQKFLPTVGGQIGTAG [L20I]
protein stability index: 2.69

Recorded result, FSDSFMDHFQKFLPTVGGQLGTAG [S5F] , protein stability index: 2.22

Recorded result, FSDMSMDHFQKFLPTVGGQLGTAG [S4M] , protein stability index: 1.79

Recorded result, FSDSSMDHFQKFLPTVGGQLGTAR [G24R] , protein stability index: 2.22

Recorded result, FSDASMDHFQKFLPTVGGQLGTAG [S4A] , protein stability index: 2.09

Recorded result, FSDSSMDHFQKFLPTDGGQLGTAG [V16D] , protein stability index: 2.85

Recorded result, FSDSSMDHFFKFLPTVGGQLGTAG [Q10F] , protein stability index: 2.3
